Tested on: human red blood cells (RBC)
Format: cell-based
Conditions: red blood cells
readout: hemolytic activity (in words)

RVIEVVQGACRASRHIPRRIRQGLERIL [Peptide I840S, engineered analog of LLP1]	significantly reduced
RVIEVVQGACRAIRHIPRRSRQGLERIL [Peptide I847S, engineered analog of LLP1]	significantly reduced

====

Test system: human red blood cells (RBC)
Type: cell-based
Conditions: Table 7; erythrocytes, 100 μM peptide
Overview of recorded % lysis at 100 μM for various sequences

FLIRQLIELLTWLFSNCRTLLSEVY [SLP2A1, engineered analog of SLP2A]	7%
RVIEVVQGACRAIRHIPRRSRQGLERIL [Peptide I847S, engineered analog of LLP1]	< 10%
RVIEVVQGACRASRHIPRRIRQGLERIL [Peptide I840S, engineered analog of LLP1]	< 10%
LLSEVYQILQPILQELSATLQRIREVLR [SLP2B1, engineered analog of SLP2B]	10%
RVIEVVQGACRAIRHIPRRIEQGLERIL [Peptide R848E, engineered analog of LLP1]	10%
RVIEVVQGACRAIEHIPRRIEQGLERIL [Analog 3, engineered analog of LLP1]	< 5%

**Q:** Tell me the measured % lysis at 100 μM of RVIEVVQGACRAIEHIPRRIRQGLERIL [Peptide R841E, engineered analog of LLP1] , please.
**A:** 30%

**Q:** Could you do the same for RVIRVVQGACRAIRHIPRRIRQGLRRIL [Analog 5, engineered analog of LLP1] , please?
**A:** 100%
